Recorded MIC, one value per entry.
- System: Staphylococcus aureus
- TEST: Antimicrobial activity against macrolide-sensitive Staphylococcus aureus ATCC 13709
- Type: functional
Use µg/mL as the unit, but write only the number.

Observe how each entry below is paired with its result.
SUBSTANCE SMILES	MEASURED RESULT
CC[C@H]1OC(=O)[C@H](C)[C@@H](O[C@H]2C[C@@](C)(OC)[C@@H](OC(=O)CCN[C@@H](C)c3ccc([N+](=O)[O-])cc3)[C@H](C)O2)[C@H](C)[C@@H](O[C@@H]2O[C@H](C)C[C@H](N(C)C)[C@H]2O)[C@](C)(O)C[C@@H](C)NC(=O)[C@H](C)[C@@H](O)[C@]1(C)O	4
CC[C@H]1OC(=O)[C@H](C)[C@@H](O[C@H]2C[C@@](C)(OC)[C@@H](OC(=O)CCN3CCN(c4cc5c(cc4F)c(=O)ccn5C4CC4)CC3)[C@H](C)O2)[C@H](C)[C@@H](O[C@@H]2O[C@H](C)C[C@H](N(C)C)[C@H]2O)[C@](C)(OC)C[C@@H](C)NC(=O)[C@H](C)[C@@H](O)[C@]1(C)O	1
CC[C@H]1OC(=O)[C@H](C)[C@@H](O[C@H]2C[C@@](C)(OC)[C@@H](OC(=O)CCN[C@H](C)c3ccc([N+](=O)[O-])cc3)[C@H](C)O2)[C@H](C)[C@@H](O[C@@H]2O[C@H](C)C[C@H](N(C)C)[C@H]2O)[C@](C)(OC)C[C@@H](C)NC(=O)[C@H](C)[C@@H](O)[C@]1(C)O	1
CC[C@H]1OC(=O)[C@H](C)[C@@H](O[C@H]2C[C@@](C)(OC)[C@@H](OC(=O)CCN3CCN(C(=O)c4ccco4)CC3)[C@H](C)O2)[C@H](C)[C@@H](O[C@@H]2O[C@H](C)C[C@H](N(C)C)[C@H]2O)[C@](C)(OC)C[C@@H](C)NC(=O)[C@H](C)[C@@H](O)[C@]1(C)O	2

(Q) State measured MIC of the compound CC[C@H]1OC(=O)[C@H](C)[C@@H](O[C@H]2C[C@@](C)(OC)[C@@H](OC(=O)CCN[C@@H](C)c3ccc([N+](=O)[O-])cc3)[C@H](C)O2)[C@H](C)[C@@H](O[C@@H]2O[C@H](C)C[C@H](N(C)C)[C@H]2O)[C@](C)(OC)C[C@@H](C)NC(=O)[C@H](C)[C@@H](O)[C@]1(C)O with Staphylococcus aureus.
(A) 2

----------
- Tested on: Streptococcus pyogenes
- TEST: Antimicrobial activity against macrolide-sensitive Streptococcus pyogenes 3665
- Format: functional
MEASUREMENT TYPE: MIC

Observe how each entry below is paired with its result.
SUBSTANCE SMILES	MIC
CC[C@H]1OC(=O)[C@H](C)[C@@H](O[C@H]2C[C@@](C)(OC)[C@@H](OC(=O)CCN3CCN(c4ccc([N+](=O)[O-])cc4)CC3)[C@H](C)O2)[C@H](C)[C@@H](O[C@@H]2O[C@H](C)C[C@H](N(C)C)[C@H]2O)[C@](C)(OC)C[C@@H](C)NC(=O)[C@H](C)[C@@H](O)[C@]1(C)O	< 0.13 µg/mL
CC[C@H]1OC(=O)[C@H](C)[C@@H](O[C@H]2C[C@@](C)(OC)[C@@H](OC(=O)CCNCCNc3cncc([N+](=O)[O-])c3)[C@H](C)O2)[C@H](C)[C@@H](O[C@@H]2O[C@H](C)C[C@H](N(C)C)[C@H]2O)[C@](C)(OC)C[C@@H](C)NC(=O)[C@H](C)[C@@H](O)[C@]1(C)O	< 0.13 µg/mL

# evaluate next
(Q) Return the recorded MIC value; entry: CC[C@H]1OC(=O)[C@H](C)[C@@H](O[C@H]2C[C@@](C)(OC)[C@@H](OC(=O)CCN3CCN(C(=O)c4ccco4)CC3)[C@H](C)O2)[C@H](C)[C@@H](O[C@@H]2O[C@H](C)C[C@H](N(C)C)[C@H]2O)[C@](C)(O)C[C@@H](C)NC(=O)[C@H](C)[C@@H](O)[C@]1(C)O
(A) < 0.13 µg/mL
